# Tested on: Pseudomonas aeruginosa
# ASSAY METHOD TEXT: Antibacterial activity against Pseudomonas aeruginosa ATCC 9027 assessed as inhibition of visible bacterial growth incubated for 18 hrs by CLSI protocol based assay
# Format: functional
# MIC per record follows

INSERT INTO assay_data (compound, observed) VALUES
  ('C[C@H]1O[C@@H]2O[C@@H]3C4C(=O)c5cccc(O)c5C(=O)C4O[C@]3(C)[C@@]21O (stereo partly specified)', '> 128 µg/mL'),
  ('CC(C)Cc1nc([C@H](C)C(=O)O)c(C(C)C)n(O)c1=O', '> 128 µg/mL'),
  ('CC1(C)S[C@@H]2[C@H](NC(=O)[C@H](N)c3ccccc3)C(=O)N2[C@H]1C(=O)O', '2 µg/mL'),
  ('C[C@H]1O[C@]12[C@@H](O)O[C@H]1[C@]2(C)O[C@]2(O)C(=O)c3c(O)cccc3C(=O)[C@@]12O', '> 128 µg/mL'),
  ('C[C@H]1O[C@@H]2C3=C(O[C@]2(C)[C@@]1(O)C=O)C(=O)c1c(O)cccc1C3=O', '> 128 µg/mL');

Then this compound:
Asked: Param item = "NC[C@H]1O[C@H](O[C@H]2[C@H](O)[C@@H](O[C@H]3O[C@H](CO)[C@@H](O)[C@H](N)[C@H]3O)[C@H](N)C[C@@H]2N)[C@H](O)[C@@H](O)[C@@H]1O" ; retrieve measured MIC.
Given back: 8 µg/mL
